Molecular target: human glucocorticoid receptor-α [GRX] isoform (Homo sapiens, UniProt P04150)
Construct: host or cells: insect SF21 cells (baculovirus)
Sequence (P04150 whole entry, canonical isoform): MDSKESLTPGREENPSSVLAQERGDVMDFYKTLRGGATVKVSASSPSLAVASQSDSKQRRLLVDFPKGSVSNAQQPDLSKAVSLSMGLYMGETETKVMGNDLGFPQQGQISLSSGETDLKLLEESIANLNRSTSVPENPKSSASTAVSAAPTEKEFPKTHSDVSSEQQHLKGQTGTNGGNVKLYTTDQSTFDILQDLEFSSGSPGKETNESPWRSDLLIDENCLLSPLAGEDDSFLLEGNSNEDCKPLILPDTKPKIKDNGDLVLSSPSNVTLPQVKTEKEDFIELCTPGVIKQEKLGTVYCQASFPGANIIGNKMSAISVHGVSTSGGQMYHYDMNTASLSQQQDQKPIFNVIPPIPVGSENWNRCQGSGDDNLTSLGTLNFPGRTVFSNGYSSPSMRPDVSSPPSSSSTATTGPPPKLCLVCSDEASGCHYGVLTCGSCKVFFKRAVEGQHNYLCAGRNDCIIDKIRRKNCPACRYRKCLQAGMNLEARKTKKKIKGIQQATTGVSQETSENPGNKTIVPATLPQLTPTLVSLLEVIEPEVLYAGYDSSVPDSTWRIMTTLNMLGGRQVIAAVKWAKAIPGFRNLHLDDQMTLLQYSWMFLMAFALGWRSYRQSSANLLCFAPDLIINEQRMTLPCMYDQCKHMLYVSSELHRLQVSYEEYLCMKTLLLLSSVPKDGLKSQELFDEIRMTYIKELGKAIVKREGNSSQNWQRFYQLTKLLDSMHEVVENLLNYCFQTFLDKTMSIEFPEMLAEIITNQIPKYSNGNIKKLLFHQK
Experiment: Radioligand binding with human glucocorticoid receptor cytosol ([3H]-dexamethasone competition)
Conditions: GRX cytosol expressed in insect SF21 cells, [3H]-Dex ~0.9 nM, 4° C. overnight; Ki by Cheng-Prusoff, KL ~[…]; read-out: Ki (nM) GR
value.kind: Ki (nM)

COc1cccc2c1-c1ccc3c(c1C(c1ccccc1)O2)C(C)=CC(C)(C)N3 (single isomer, unassigned) [Example 25]: 240
COc1cccc2c1-c1ccc3c(c1[C@H](C1(C)CC=CCC1)O2)C(C)=CC(C)(C)N3 (stereo in doubt): 1.8

[a] C=CCC1Oc2cccc(C=NO)c2-c2ccc3c(c21)C(C)=CC(C)(C)N3 (stereo not shown)
[b] COc1c(O)ccc2c1-c1ccc3c(c1C(c1cccc(C(F)(F)F)c1)O2)C(C)=CC(C)(C)N3 (stereo not shown)
Parameter metric = Ki. Return the lower-valued option from a and b . To answer, give the label that identifies your chosen option.
b
(b: 3.8 nM, a: 33 nM)
